# ASSAY OVERVIEW: Pharmacokinetics in mice
# Format: in vivo, BALB/c hairy mice
# CONDITION NOTES: both sexes, BALB/c hairy, mouse, plasma, PO 10 mg/kg, 0.28 h, read-out: Plasma Conc.
VALUE TYPE: concentration at 0.28 h (ng/mL)
One number for each entry, in ng/mL.

Challenge: Request the reported concentration at 0.28 h associated with Cc1cnc(N[C@H]2CC[C@H](N)CC2)nc1-c1cnc2ccc(-c3ccccc3)cn12
Response given: 300

* * *

# ASSAY OVERVIEW: Drug concentration in plasma and tumor 4 h post final dose
# Format: in vivo, MV4-11 tumor-bearing mice
# CONDITION NOTES: BALB/c nude (nu/nu), mouse, plasma, oral, 75 mg/kg, 75 mg/kg orally 5 days, 4 h post final dose, mouse 2; read-out: Plasma concentration
VALUE TYPE: concentration at 4 h

Challenge: Fill blank: measured concentration at 4 h of the compound Cc1cnc(N[C@H]2CC[C@H](N)CC2)nc1-c1cnc2ccc(-c3ccccc3)cn12 [CDDD11-8] is ____.
Response given: 441 ng/mL

* * *

# ASSAY OVERVIEW: Drug concentration in plasma and tumor 4 h post final dose
# Type: in vivo, MV4-11 tumor-bearing mice
# CONDITION NOTES: BALB/c nude (nu/nu), mouse, plasma, oral, 125 mg/kg, 125 mg/kg orally 5 days, 4 h post final dose, mouse 3; read-out: Plasma concentration
VALUE TYPE: concentration at 4 h (ng/mL)
Answers are plain numbers, in ng/mL.

Challenge: Would you kindly share the measured concentration at 4 h for Cc1cnc(N[C@H]2CC[C@H](N)CC2)nc1-c1cnc2ccc(-c3ccccc3)cn12 [CDDD11-8] ?
Response given: 1800

* * *

# ASSAYED TARGET: MINK (Homo sapiens)
# Sequence (Q8N4C8 whole entry): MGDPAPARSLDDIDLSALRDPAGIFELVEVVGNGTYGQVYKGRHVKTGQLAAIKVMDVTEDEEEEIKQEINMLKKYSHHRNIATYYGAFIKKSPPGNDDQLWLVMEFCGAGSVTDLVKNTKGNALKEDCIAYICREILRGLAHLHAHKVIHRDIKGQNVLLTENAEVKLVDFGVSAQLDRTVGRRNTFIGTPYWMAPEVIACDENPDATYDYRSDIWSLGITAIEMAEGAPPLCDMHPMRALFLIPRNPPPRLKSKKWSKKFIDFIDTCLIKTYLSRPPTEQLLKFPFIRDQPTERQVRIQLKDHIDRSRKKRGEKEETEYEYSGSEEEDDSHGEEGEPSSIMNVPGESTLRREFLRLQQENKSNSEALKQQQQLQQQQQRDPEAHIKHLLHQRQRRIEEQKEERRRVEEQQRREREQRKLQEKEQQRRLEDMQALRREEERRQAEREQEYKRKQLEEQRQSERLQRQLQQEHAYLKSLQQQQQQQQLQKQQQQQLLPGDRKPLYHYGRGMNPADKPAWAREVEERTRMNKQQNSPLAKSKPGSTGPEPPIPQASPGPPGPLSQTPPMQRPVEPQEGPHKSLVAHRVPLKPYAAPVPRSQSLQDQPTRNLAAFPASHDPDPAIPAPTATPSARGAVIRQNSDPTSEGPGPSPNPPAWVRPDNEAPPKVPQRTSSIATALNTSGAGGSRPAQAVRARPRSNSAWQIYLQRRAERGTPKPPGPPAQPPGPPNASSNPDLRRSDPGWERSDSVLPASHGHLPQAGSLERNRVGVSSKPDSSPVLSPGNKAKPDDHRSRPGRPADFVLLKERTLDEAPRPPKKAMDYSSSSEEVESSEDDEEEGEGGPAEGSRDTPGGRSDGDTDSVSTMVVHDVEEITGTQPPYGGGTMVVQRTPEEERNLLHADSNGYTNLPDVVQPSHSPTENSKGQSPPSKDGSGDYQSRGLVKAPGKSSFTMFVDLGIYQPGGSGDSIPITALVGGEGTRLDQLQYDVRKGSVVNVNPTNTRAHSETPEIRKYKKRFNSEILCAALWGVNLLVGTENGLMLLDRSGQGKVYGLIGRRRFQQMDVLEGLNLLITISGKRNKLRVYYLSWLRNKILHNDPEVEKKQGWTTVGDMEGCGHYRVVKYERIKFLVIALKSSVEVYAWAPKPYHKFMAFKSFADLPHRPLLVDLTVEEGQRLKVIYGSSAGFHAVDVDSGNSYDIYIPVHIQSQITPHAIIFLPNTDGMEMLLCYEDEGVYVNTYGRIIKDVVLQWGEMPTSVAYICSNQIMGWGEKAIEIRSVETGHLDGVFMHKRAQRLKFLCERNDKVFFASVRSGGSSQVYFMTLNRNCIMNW
VALUE TYPE: Ki (µM)
Give bare numbers, in µM.

Challenge: Give Ki (MINK (Homo sapiens)) of the following compound: Cc1cnc(N[C@H]2CC[C@H](N)CC2)nc1-c1cnc2ccc(-c3ccccc3)cn12
Response given: 0.014

* * *

# ASSAY OVERVIEW: Pharmacokinetics in mice
# Assay type: in vivo, BALB/c hairy mice
# CONDITION NOTES: both sexes, BALB/c hairy, mouse, plasma, PO 10 mg/kg, 1.2 h, read-out: Plasma Conc.
VALUE TYPE: concentration at 1.2 h (ng/mL)
One number for each entry, in ng/mL.

Challenge: Given the molecule Cc1cnc(N[C@H]2CC[C@H](N)CC2)nc1-c1cnc2ccc(-c3ccccc3)cn12 , what is its reported concentration at 1.2 h?
Response given: 740

* * *

# ASSAY OVERVIEW: Pharmacokinetics in mice
# Assay type: in vivo, BALB/c hairy mice
# CONDITION NOTES: both sexes, BALB/c hairy, mouse, plasma, oral 10 mg/kg, ± standard error of the estimate
VALUE TYPE: Tmax (h)
One number for each entry, in h.

Challenge: Name the reported Tmax value associated with the molecule Cc1cnc(N[C@H]2CC[C@H](N)CC2)nc1-c1cnc2ccc(-c3ccccc3)cn12
Response given: 1

* * *

# ASSAY OVERVIEW: Pharmacokinetics in mice
# Format: in vivo, BALB/c hairy mice
# CONDITION NOTES: both sexes, BALB/c hairy, mouse, plasma, PO 100 mg/kg, 41.2 h, read-out: Plasma Conc.
VALUE TYPE: concentration at 41.2 h

Challenge: Can you share its concentration at 41.2 h? I mean this compound: Cc1cnc(N[C@H]2CC[C@H](N)CC2)nc1-c1cnc2ccc(-c3ccccc3)cn12 [CDDD11-8]
Response given: 0 µg/mL

* * *

# ASSAY OVERVIEW: Pharmacokinetics in mice
# Format: in vivo, BALB/c hairy mice
# CONDITION NOTES: both sexes, BALB/c hairy, mouse, plasma, PO 10 mg/kg, 21.0 h, read-out: Plasma Conc.
VALUE TYPE: concentration at 21 h (µg/mL)
One number for each entry, in µg/mL.

Challenge: Suppose we examine the compound Cc1cnc(N[C@H]2CC[C@H](N)CC2)nc1-c1cnc2ccc(-c3ccccc3)cn12 [CDDD11-8] ; what concentration at 21 h value has been reported?
Response given: 0

* * *

# ASSAY OVERVIEW: Pharmacokinetics in mice
# Type: in vivo, BALB/c hairy mice
# CONDITION NOTES: both sexes, BALB/c hairy, mouse, plasma, PO 10 mg/kg, 4.0 h, read-out: Plasma Conc.
VALUE TYPE: concentration at 4 h (ng/mL)
Answers are plain numbers, in ng/mL.

Challenge: Look up concentration at 4 h for this compound: Cc1cnc(N[C@H]2CC[C@H](N)CC2)nc1-c1cnc2ccc(-c3ccccc3)cn12
Response given: 169

* * *

# ASSAY OVERVIEW: Drug concentration in plasma and tumor 4 h post final dose
# Type: in vivo, MV4-11 tumor-bearing mice
# CONDITION NOTES: BALB/c nude (nu/nu), mouse, tumor, oral, 75 mg/kg, 75 mg/kg orally 5 days, 4 h post final dose, mouse 2; read-out: Tumor concentration
VALUE TYPE: concentration at 4 h (ng/g)
Answers are plain numbers, in ng/g.

Challenge: Tell me the measured concentration at 4 h of Cc1cnc(N[C@H]2CC[C@H](N)CC2)nc1-c1cnc2ccc(-c3ccccc3)cn12 , please.
Response given: 1780

* * *

# ASSAY OVERVIEW: Pharmacokinetics in mice
# Type: in vivo, BALB/c hairy mice
# CONDITION NOTES: both sexes, BALB/c hairy, mouse, plasma, PO 100 mg/kg, 22.1 h, read-out: Plasma Conc.
VALUE TYPE: concentration at 22.1 h (ng/mL)
Give bare numbers, in ng/mL.

Challenge: Please report the recorded concentration at 22.1 h for Cc1cnc(N[C@H]2CC[C@H](N)CC2)nc1-c1cnc2ccc(-c3ccccc3)cn12 [CDDD11-8] .
Response given: 153

* * *

# ASSAY OVERVIEW: Pharmacokinetics in mice
# Format: in vivo, BALB/c hairy mice
# CONDITION NOTES: both sexes, BALB/c hairy, mouse, plasma, IV 2 mg/kg, 0.07 h, read-out: Plasma Conc.
VALUE TYPE: concentration at 0.07 h

Challenge: // lookup concentration at 0.07 h for Cc1cnc(N[C@H]2CC[C@H](N)CC2)nc1-c1cnc2ccc(-c3ccccc3)cn12 [CDDD11-8]
Response given: 2150 ng/mL

* * *

# ASSAYED TARGET: UniProtKB P11802
# Sequence (P11802 whole entry): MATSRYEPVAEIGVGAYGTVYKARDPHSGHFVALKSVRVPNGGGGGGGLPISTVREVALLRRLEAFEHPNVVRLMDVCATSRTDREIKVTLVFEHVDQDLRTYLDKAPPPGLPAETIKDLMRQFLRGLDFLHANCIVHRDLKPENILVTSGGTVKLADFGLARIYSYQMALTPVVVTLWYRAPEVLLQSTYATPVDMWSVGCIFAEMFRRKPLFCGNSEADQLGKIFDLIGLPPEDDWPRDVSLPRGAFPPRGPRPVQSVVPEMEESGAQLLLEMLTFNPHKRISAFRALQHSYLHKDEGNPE
# Sequence (P24385 whole entry partner): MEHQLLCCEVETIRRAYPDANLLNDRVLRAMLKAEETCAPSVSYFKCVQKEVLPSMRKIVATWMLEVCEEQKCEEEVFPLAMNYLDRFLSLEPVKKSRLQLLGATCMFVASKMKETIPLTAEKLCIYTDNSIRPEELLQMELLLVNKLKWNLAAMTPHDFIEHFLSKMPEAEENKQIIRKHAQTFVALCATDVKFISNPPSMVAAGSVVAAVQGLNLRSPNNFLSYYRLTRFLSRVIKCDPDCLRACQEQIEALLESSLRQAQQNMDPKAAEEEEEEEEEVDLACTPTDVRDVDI
# ASSAY OVERVIEW: ADP Glo kinase assay
# Assay type: biochemical
# CONDITION NOTES: calculated from IC50 using the Cheng-Prusoff equation
# Method: Kinase assay. The ADP Glo^TM kinase assay (Promega, Madison, WI, USA) was used to assess the inhibition by CDDD11-8 of CDKs 1, 2, 4, 6, 7, and 9, as well as the mutant isoforms of FLT3. The assays were performed in accord with the manufacturer’s protocol (Promega) as described previously. […] Ki values were calculated from the IC50 using the Cheng−Prusoff equation [32]. […]
VALUE TYPE: Ki

Challenge: What value of Ki has been reported for the following molecule? Cc1cnc(N[C@H]2CC[C@H](N)CC2)nc1-c1cnc2ccc(-c3ccccc3)cn12
Response given: > 1000 nM

* * *

# ASSAY OVERVIEW: Drug concentration in plasma and tumor 4 h post final dose
# Type: in vivo, MV4-11 tumor-bearing mice
# CONDITION NOTES: BALB/c nude (nu/nu), mouse, tumor, oral, 125 mg/kg, 125 mg/kg orally 5 days, 4 h post final dose, mouse 1; read-out: Tumor concentration
VALUE TYPE: concentration at 4 h (ng/g)
Answers are plain numbers, in ng/g.

Challenge: Reported concentration at 4 h, molecule Cc1cnc(N[C@H]2CC[C@H](N)CC2)nc1-c1cnc2ccc(-c3ccccc3)cn12 : ____
Response given: 1680

* * *

# ASSAY OVERVIEW: Pharmacokinetics in mice
# Format: in vivo, BALB/c hairy mice
# CONDITION NOTES: both sexes, BALB/c hairy, mouse, plasma, PO 100 mg/kg, 29.0 h, read-out: Plasma Conc.
VALUE TYPE: concentration at 29 h (ng/mL)
Numbers only, in ng/mL.

Challenge: Given Cc1cnc(N[C@H]2CC[C@H](N)CC2)nc1-c1cnc2ccc(-c3ccccc3)cn12 , state its recorded concentration at 29 h.
Response given: 62

* * *

# ASSAY OVERVIEW: Pharmacokinetics in mice
# Type: in vivo, BALB/c hairy mice
# CONDITION NOTES: both sexes, BALB/c hairy, mouse, plasma, IV 2 mg/kg, 0.17 h, read-out: Plasma Conc.
VALUE TYPE: concentration at 0.17 h
Please state the value followed by its unit.

Challenge: Reported concentration at 0.17 h, compound Cc1cnc(N[C@H]2CC[C@H](N)CC2)nc1-c1cnc2ccc(-c3ccccc3)cn12 : ____
Response given: 1070 ng/mL

* * *

# ASSAY OVERVIEW: Pharmacokinetics in mice
# Format: in vivo, BALB/c hairy mice
# CONDITION NOTES: both sexes, BALB/c hairy, mouse, plasma, PO 10 mg/kg, 7.8 h, read-out: Plasma Conc.
# Protocol: Pharmacokinetics. The pharmacokinetics of CDDD11-8 was determined in mice after single oral (PO) and intravenous (IV) doses. […] The concentrations in these samples were measured by validated LC-MS/MS methods (limit of quantification = 5 ng/mL). […] Acceptability of models was evaluated from values for Akaike Information Criterion (AIC), Schwarz’s Bayesian Criterion (SIB), and % Coefficient of Variance (CV) for parameters, where lower values were indicative of a better fit. […]
VALUE TYPE: concentration at 7.8 h
Form entry: enter the amount, then its unit.

Challenge: Look at this compound and give its reported concentration at 7.8 h. Cc1cnc(N[C@H]2CC[C@H](N)CC2)nc1-c1cnc2ccc(-c3ccccc3)cn12
Response given: 1.6 ng/mL
